Assay: Aqueous solubility
Conditions: water
Structures can show the parent of a compound that is named as a salt.
quantityKind: solubility

Request: Which solubility is reported for this molecule? CC(=O)O[C@H]1C(=O)[C@@]2(C)[C@H]([C@H](OC(=O)c3ccccc3)[C@]3(O)C[C@H](OC(=O)[C@H](OC(=O)CCCC(=O)NCCCN(C)C)[C@@H](NC(=O)c4ccccc4)c4ccccc4)C(C)=C1C3(C)C)[C@]1(OC(C)=O)CO[C@@H]1C[C@@H]2O [Example 25, HCl-Salt]
Response: ~10000 µg/mL
